- target.desc: poly (ADP-ribose) synthetase (PARS) (Mus musculus)
- Construct: endogenous in cells; host or cells: J774 macrophages
- Sequence (P11103 whole entry): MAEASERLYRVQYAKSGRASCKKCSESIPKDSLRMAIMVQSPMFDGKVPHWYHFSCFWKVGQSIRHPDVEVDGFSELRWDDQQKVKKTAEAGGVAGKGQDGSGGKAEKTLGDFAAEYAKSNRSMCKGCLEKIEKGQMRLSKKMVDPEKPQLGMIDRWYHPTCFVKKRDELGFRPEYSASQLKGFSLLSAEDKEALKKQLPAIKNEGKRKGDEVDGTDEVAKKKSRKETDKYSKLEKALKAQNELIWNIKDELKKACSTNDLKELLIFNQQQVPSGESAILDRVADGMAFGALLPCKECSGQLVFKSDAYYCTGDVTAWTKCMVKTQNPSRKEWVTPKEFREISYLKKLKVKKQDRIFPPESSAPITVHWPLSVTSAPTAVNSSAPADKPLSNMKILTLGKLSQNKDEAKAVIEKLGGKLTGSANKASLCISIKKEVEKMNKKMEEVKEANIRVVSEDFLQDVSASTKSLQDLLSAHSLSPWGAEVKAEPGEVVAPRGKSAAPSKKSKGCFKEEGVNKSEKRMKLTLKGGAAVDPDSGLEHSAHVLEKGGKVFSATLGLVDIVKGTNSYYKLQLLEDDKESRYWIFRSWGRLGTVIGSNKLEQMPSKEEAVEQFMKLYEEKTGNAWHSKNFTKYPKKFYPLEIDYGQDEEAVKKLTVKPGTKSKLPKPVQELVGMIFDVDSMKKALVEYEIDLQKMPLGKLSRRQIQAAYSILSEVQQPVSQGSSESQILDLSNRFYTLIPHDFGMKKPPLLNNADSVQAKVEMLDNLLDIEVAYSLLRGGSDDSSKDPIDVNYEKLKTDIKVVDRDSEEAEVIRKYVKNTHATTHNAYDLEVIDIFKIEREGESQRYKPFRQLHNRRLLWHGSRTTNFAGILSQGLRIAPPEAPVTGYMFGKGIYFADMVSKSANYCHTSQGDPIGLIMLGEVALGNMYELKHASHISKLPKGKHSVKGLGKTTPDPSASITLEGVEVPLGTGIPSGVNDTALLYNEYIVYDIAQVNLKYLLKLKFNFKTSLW
- experimental.details: Peroxynitrite-induced PARS activation and cell injury in J774 macrophages
- Assay type: cell-based
- experimental.setup: J774 macrophages exposed to peroxynitrite
measurement.type: % Inhibition (10 μM)
State the value, then name its unit.

CN1CCN(CCCC(=O)Nc2cccc3c2CNC3=O)CC1 : 35%
N=C(N)NCCC[C@H](N)C(=O)Nc1cccc2c1CNC2=O : 72%
O=C(CCC(=O)N1CCc2ccccc2C1)Nc1cccc2c1CNC2=O : 64%
CN1CCN(CCC(=O)Nc2cccc3c2CNC3=O)CC1 : 59%

Consider the additional compound presented here.
GET /values?readout=% Inhibition (10 μM)&item= O=C(O)CCC(=O)Nc1cccc2c1CNC2=O
25%
